Can you tell me Population Apoptotic (%) for the items I'm about to list?
# Test system: Fibroblast
# PROTOCOL_TEXT: Multiplex assay against human fibroblast
# Type: toxicity, cell-based
# MEASUREMENT_SETUP: 48 h, 10 µM, compound concentration 10 uM, replicate 1
Numbers only here, please. The scale is %.

Query: Value lookup for Population Apoptotic (%); key = `Cc1c(CC(=O)O)c2cccnc2n1Cc1ccc(S(C)(=O)=O)cc1C(F)(F)F`
Result: 73

Query: // next record `COc1cccc2c1c(NS(=O)(=O)c1ccc(Cl)s1)nn2Cc1cccc(CNC(=O)C(C)(C)O)c1`
Result: 63

Query: // next record `CCCCC(=O)N(Cc1ccc(-c2ccccc2-c2nnn[nH]2)cc1)[C@H](C(=O)O)C(C)C`
Result: 64

Query: // next record Cl.NCCc1ccc(O)c(O)c1 [DOPAMINE HYDROCHLORIDE]
Result: 87

Query: // next record `Cc1cccc(NC(=O)CN2CCC(c3ccccn3)CC2)c1.Cl.Cl`
Result: 76

Query: // next record `CN[C@@H](C)C(=O)N[C@H](C(=O)N1CCC[C@H]1C(=O)Nc1snnc1-c1ccccc1)C1CCCCC1`
Result: 76

Query: // next record `CCc1cc2cc(NS(=O)(=O)c3ccc(C#N)cc3)ccc2n(CC)c1=O`
Result: 60

Query: // next record `CC(/C=C1\SC(=S)N(CCCC(=O)Nc2ccc(C(=O)O)c(O)c2)C1=O)=C\c1ccccc1`
Result: 46

Query: // next record `C[C@H](N)COC(=O)[C@@H](CCCCN)NC(=O)Cc1c(-c2ccc3ccccc3c2)[nH]c2c1ccc1ccccc12`
Result: 46

Query: // next record `CC(C)(C)c1cc(NC(=O)Nc2ccc(-c3cn4c(n3)sc3cc(OCCN5CCOCC5)ccc34)cc2)no1`
Result: 79

Query: // next record `Cc1onc(-c2ccccc2Cl)c1C(=O)N(C)c1ccc(Cl)cc1`
Result: 44

Query: // next record `COc1ccccc1N1CCN(C[C@@H](C(=O)NC(C)(C)C)c2ccccc2)CC1.Cl.Cl`
Result: 84

Query: // next record `CC(C)c1noc(N2CCC(COc3ccc(-c4ccc(S(C)(=O)=O)cc4)nc3)CC2)n1`
Result: 63

Query: // next record `CC(C)COc1ccc(CNC(=O)N(Cc2ccc(F)cc2)C2CCN(C)CC2)cc1`
Result: 92

Query: // next record Cc1sc2c(c1C)C(c1ccc(Cl)cc1)=N[C@@H](CC(=O)NCCCCCCCCNC(=O)COc1cccc3c1C(=O)N(C1CCC(=O)NC1=O)C3=O)c1nnc(C)n1-2 (stereo not given in full)
Result: 86

====

Can you tell me Population Mitochondria Different-Phenotype (%) for the items I'm about to list?
# System: Fibroblast
# PROTOCOL_TEXT: Multiplex assay against human fibroblast
# Type: toxicity, cell-based
# MEASUREMENT_SETUP: 12 h, 10 µM, compound concentration 10 uM, replicate 1
Numbers only here, please. The scale is %.

Query: Value lookup for Population Mitochondria Different-Phenotype (%); key = `CCCOc1ccc2[nH]cc(C3=CCNCC3)c2n1.Cl`
Result: 12

Query: // next record `N#Cc1c(Oc2cccc(OS(=O)(=O)CCCC(F)(F)F)c2)cccc1C(F)(F)F`
Result: 7

Query: // next record `CC(C)COc1ccc(CNC(=O)N(Cc2ccc(F)cc2)C2CCN(C)CC2)cc1`
Result: 42

Query: // next record `O=C1[C@H](Cc2ccc(O)cc2)N2C(=O)CCN(C(=O)NCc3ccccc3)[C@H]2CN1Cc1cccc2ccccc12`
Result: 24

Query: // next record Cl.NCCc1ccc(O)c(O)c1 [DOPAMINE HYDROCHLORIDE]
Result: 3

Query: // next record `CN(C)C(=O)Cn1cc(-c2ccc(-c3cncc4ccccc34)cc2)cn1`
Result: 12

Query: // next record `CC(=O)Nc1cccc2c1c(Sc1ccc(Cl)cc1)c(C)n2CC(=O)O`
Result: 3

Query: // next record `CN[C@@H](C)C(=O)N[C@H](C(=O)N1CCC[C@H]1C(=O)Nc1snnc1-c1ccccc1)C1CCCCC1`
Result: 13

Query: // next record `C[C@H](N)COC(=O)[C@@H](CCCCN)NC(=O)Cc1c(-c2ccc3ccccc3c2)[nH]c2c1ccc1ccccc12`
Result: 8

====

# Tested on: HEK-293T
# PROTOCOL_TEXT: Multiplex assay against HEK293T
# Format: toxicity, cell-based
# MEASUREMENT_SETUP: human, 48 h, 10 µM, compound concentration 10 uM, replicate 2
MEASURE: Population Fragmented Nuclei (%)
Numbers only here, please. The scale is %.

Query: Value lookup for Population Fragmented Nuclei (%); key = Cl.NCCc1ccc(O)c(O)c1 [DOPAMINE HYDROCHLORIDE]
Result: 12

Query: // next record `CC[C@@H](C)Nc1nc(C)nc2c(-c3ccc(OC)nc3C)c(C)nn12`
Result: 10

Query: // next record `CC(/C=C1\SC(=S)N(CCCC(=O)Nc2ccc(C(=O)O)c(O)c2)C1=O)=C\c1ccccc1`
Result: 11

Query: // next record `O=C1[C@H](Cc2ccc(O)cc2)N2C(=O)CCN(C(=O)NCc3ccccc3)[C@H]2CN1Cc1cccc2ccccc12`
Result: 11

Query: // next record `NCCc1cn(S(=O)(=O)c2c(Cl)nc3sccn23)c2ccccc12.O=C(O)C(=O)O`
Result: 19

Query: // next record `CN1CCN(c2cc(-c3ccccc3)nc(N)n2)CC1`
Result: 13

Query: // next record `CCCOc1ccc2[nH]cc(C3=CCNCC3)c2n1.Cl`
Result: 13

Query: // next record `CC(=O)Nc1cccc2c1c(Sc1ccc(Cl)cc1)c(C)n2CC(=O)O`
Result: 16

Query: // next record `O=C(CCCc1ccccc1)Nc1nc2ccccc2c(=O)s1`
Result: 13

Query: // next record `CCc1cc2cc(NS(=O)(=O)c3ccc(C#N)cc3)ccc2n(CC)c1=O`
Result: 16

Query: // next record `COc1ccccc1N1CCN(C[C@@H](C(=O)NC(C)(C)C)c2ccccc2)CC1.Cl.Cl`
Result: 10

Query: // next record `Cc1onc(-c2ccccc2Cl)c1C(=O)N(C)c1ccc(Cl)cc1`
Result: 12

Query: // next record `CC(C)COc1ccc(CNC(=O)N(Cc2ccc(F)cc2)C2CCN(C)CC2)cc1`
Result: 31

====

# Test system: U2OS
# PROTOCOL_TEXT: Multiplex assay against U2OS
# Assay type: toxicity, cell-based
# MEASUREMENT_SETUP: human, 48 h, 1 µM, compound concentration 1 uM, replicate 1
Can you tell me Population Normal (%) for the items I'm about to list?
# answer = value followed by unit

Query: Value lookup for Population Normal (%); key = `N#Cc1cc(F)cc(-c2nc(-c3ccc(F)cn3)no2)c1`
Result: 98%

Query: // next record Cl.NCCc1ccc(O)c(O)c1 [DOPAMINE HYDROCHLORIDE]
Result: 97%

Query: // next record Br.CS(=O)(=O)Nc1c(O)ccc2c1CCCC2C1=NCCN1 (stereo not given)
Result: 98%

Query: // next record Cc1sc2c(c1C)C(c1ccc(Cl)cc1)=N[C@@H](CC(=O)NCCCCCCCCNC(=O)COc1cccc3c1C(=O)N(C1CCC(=O)NC1=O)C3=O)c1nnc(C)n1-2 (stereo not given in full)
Result: 89%

Query: // next record `N#Cc1c(Oc2cccc(OS(=O)(=O)CCCC(F)(F)F)c2)cccc1C(F)(F)F`
Result: 96%

Query: // next record `O=C(CCCc1ccccc1)Nc1nc2ccccc2c(=O)s1`
Result: 92%

Query: // next record `Cc1cccc(NC(=O)CN2CCC(c3ccccn3)CC2)c1.Cl.Cl`
Result: 97%

Query: // next record `COc1ccccc1N1CCN(C[C@@H](C(=O)NC(C)(C)C)c2ccccc2)CC1.Cl.Cl`
Result: 97%

Query: // next record `CC(C)c1noc(N2CCC(COc3ccc(-c4ccc(S(C)(=O)=O)cc4)nc3)CC2)n1`
Result: 97%

Query: // next record Cl.N=C(N)NC(=O)Cc1c(Cl)cccc1Cl [GUANFACINE HYDROCHLORIDE]
Result: 97%

Query: // next record O=C(NCCN1CCC(n2c(=O)[nH]c3cc(Cl)ccc32)CC1)c1ccc(F)cc1 [HALOPEMIDE]
Result: 97%

Query: // next record `COc1cccc2c1c(NS(=O)(=O)c1ccc(Cl)s1)nn2Cc1cccc(CNC(=O)C(C)(C)O)c1`
Result: 98%

Query: // next record `CC(=O)Nc1cccc2c1c(Sc1ccc(Cl)cc1)c(C)n2CC(=O)O`
Result: 98%

Query: // next record `CC(C)(C)c1cc(NC(=O)Nc2ccc(-c3cn4c(n3)sc3cc(OCCN5CCOCC5)ccc34)cc2)no1`
Result: 96%

Query: // next record `CCCCC1=NC2(CCCC2)C(=O)N1Cc1ccc(-c2ccccc2-c2nnn[nH]2)cc1`
Result: 97%

Value source: ChEMBL document CHEMBL5058577
